# credit: patent US20240300886A1

- assay details: Metabolic stability in rat liver microsomes (RLM)
- Type: in vitro ADME, Sprague Dawley rats
- condition set: male, Sprague Dawley, rat, pooled rat liver microsomes, pH 7.4, 1 μM compound, 0.50 mg protein/mL, NADPH
# Lookup of reported microsomal CLint at 1 μM keyed by entry
measurement kind: microsomal CLint at 1 μM

>  <compound>
CNC1(c2ccccc2Cl)CCCCC1=O (racemic) [racemic ketamine, ketamine]

>  <endpoint value>
294 µL/min/mg

$$$$
>  <compound>
N[C@]1(c2ccc(F)cc2)CCCCC1=O [Compound 1S]

>  <endpoint value>
< 9.6 µL/min/mg

$$$$
>  <compound>
N[C@]1(c2cccc(F)c2)CCCCC1=O [Compound 3S]

>  <endpoint value>
14.6 µL/min/mg

$$$$
>  <compound>
N[C@@]1(c2cccc(F)c2)CCCCC1=O [Compound 3R]

>  <endpoint value>
< 9.6 µL/min/mg

$$$$
>  <compound>
CN[C@@]1(c2ccc(F)cc2)CCCCC1=O [Compound 2R]

>  <endpoint value>
17.8 µL/min/mg

$$$$
>  <compound>
N[C@@]1(c2ccc(F)cc2)CCCCC1=O [Compound 1R]

>  <endpoint value>
< 9.6 µL/min/mg

$$$$
>  <compound>
NC1(c2ccc(F)cc2)CCCCC1=O (racemic) [Compound 1]

>  <endpoint value>
< 9.6 µL/min/mg

$$$$
>  <compound>
CN[C@]1(c2ccc(F)cc2)CCCCC1=O [Compound 2S]

>  <endpoint value>
22.8 µL/min/mg

$$$$

----------
- assay details: Oral bioavailability in mice, Method A (plasma and brain PK)
- Assay type: in vivo, CD-1 mice
- condition set: male, CD-1, mouse plasma, 10 mg/kg po, read-out: AUC0-inf (po) (converted)

>  <compound>
CNC1(c2ccccc2Cl)CCCCC1=O (racemic) [racemic ketamine, ketamine]

>  <units text>
ng·h/mL

>  <AUC(0-inf)>
96.8

$$$$

----------
- assay details: Oral bioavailability in mice, Method A (plasma and brain PK)
- Format: in vivo, CD-1 mice
- condition set: male, CD-1, mouse plasma, 10 mg/kg po, read-out: t1/2 (po)

>  <compound>
CNC1(c2ccccc2Cl)CCCCC1=O (racemic) [racemic ketamine, ketamine]

>  <half-life [min]>
11.5

$$$$

----------
# Lookup of reported concentration at 0.083 h keyed by entry
- assay details: Comparative metabolism/PK of 2R and deuterated 7R in rats after oral administration
- Assay type: in vivo, Sprague Dawley rats
- condition set: male, Sprague Dawley, rat, brain, oral, 10 mg/kg, rat brain, 0.083 h after 10 mg/kg po of 2R or 7R; read-out: Mean brain concentration

>  <compound>
CN[C@]1(c2ccc(F)cc2)CCCCC1=O [Compound 2S]

>  <units text>
ng/g

>  <concentration at 0.083 h>
43

$$$$
>  <compound>
[2H]C([2H])([2H])N[C@@]1(c2ccc(F)cc2)CCCCC1=O [Compound 7R]

>  <units text>
ng/g

>  <concentration at 0.083 h>
98

$$$$
>  <compound>
N[C@@]1(c2ccc(F)cc2)CCCCC1=O [Compound 1R]

>  <units text>
ng/g

>  <concentration at 0.083 h>
56

$$$$

----------
- assay details: Metabolic stability in Gottingen minipig liver microsomes (MPLM)
- Type: in vitro ADME, Gottingen minipigs
- condition set: pooled minipig liver microsomes, pH 7.4, 1 μM compound, 0.50 mg protein/mL, NADPH
# Lookup of reported microsomal CLint at 1 μM keyed by entry

>  <compound>
CN[C@@]1(c2ccc(F)cc2)CCCCC1=O

>  <microsomal CLint at 1 μM>
36.5 µL/min/mg

$$$$
>  <compound>
N[C@]1(c2ccc(F)cc2)CCCCC1=O

>  <microsomal CLint at 1 μM>
< 9.6 µL/min/mg

$$$$
>  <compound>
N[C@]1(c2cccc(F)c2)CCCCC1=O

>  <microsomal CLint at 1 μM>
< 9.6 µL/min/mg

$$$$
>  <compound>
CNC1(c2ccccc2Cl)CCCCC1=O (racemic) [racemic ketamine, ketamine]

>  <microsomal CLint at 1 μM>
218 µL/min/mg

$$$$
>  <compound>
CN[C@]1(c2ccc(F)cc2)CCCCC1=O

>  <microsomal CLint at 1 μM>
44.9 µL/min/mg

$$$$

----------
- assayed target: serotonin transporter (SERT) (Homo sapiens (Human), UniProt P31645)
- assay details: SERT fluorescent substrate uptake inhibition in transfected cells
- Type: cell-based
- condition set: stably transfected cells expressing SERT
# Lookup of reported inhibition at 10 µM keyed by entry
measurement kind: inhibition at 10 µM

>  <structure as smiles>
N[C@@]1(c2cccc(F)c2)CCCCC1=O

>  <measurement kind>
inhibition at 10 µM

>  <endpoint value>
1.75%

$$$$
>  <structure as smiles>
CN[C@@]1(c2ccc(F)cc2)CCCCC1=O

>  <measurement kind>
inhibition at 10 µM

>  <endpoint value>
58.8%

$$$$
>  <structure as smiles>
N[C@@]1(c2ccc(F)cc2)CCCCC1=O

>  <measurement kind>
inhibition at 10 µM

>  <endpoint value>
10.4%

$$$$
>  <structure as smiles>
CN[C@]1(c2ccc(F)cc2)CCCCC1=O

>  <measurement kind>
inhibition at 10 µM

>  <endpoint value>
36.4%

$$$$
>  <structure as smiles>
N[C@]1(c2ccc(F)cc2)CCCCC1=O

>  <measurement kind>
inhibition at 10 µM

>  <endpoint value>
14.9%

$$$$
>  <structure as smiles>
N[C@]1(c2cccc(F)c2)CCCCC1=O

>  <measurement kind>
inhibition at 10 µM

>  <endpoint value>
-0.21%

$$$$

----------
# Lookup of reported microsomal CLint at 1 μM keyed by entry
- assay details: Metabolic stability in mouse liver microsomes (MLM)
- Assay type: in vitro ADME, CD-1 mice
- condition set: male, CD-1, mouse, pooled mouse liver microsomes, pH 7.4, 1 μM compound, 0.50 mg protein/mL, NADPH

>  <compound>
NC1(c2ccc(F)cc2)CCCCC1=O (racemic) [Compound 1]

>  <modifier>
<

>  <microsomal CLint at 1 μM (µL/min/mg)>
9.6

$$$$
>  <compound>
N[C@@]1(c2cccc(F)c2)CCCCC1=O [Compound 3R]

>  <modifier>
=

>  <microsomal CLint at 1 μM (µL/min/mg)>
11.6

$$$$
>  <compound>
CN[C@]1(c2ccc(F)cc2)CCCCC1=O [Compound 2S]

>  <modifier>
=

>  <microsomal CLint at 1 μM (µL/min/mg)>
12.9

$$$$
>  <compound>
N[C@@]1(c2ccc(F)cc2)CCCCC1=O [Compound 1R]

>  <modifier>
<

>  <microsomal CLint at 1 μM (µL/min/mg)>
9.6

$$$$
>  <compound>
CNC1(c2ccccc2Cl)CCCCC1=O (racemic) [racemic ketamine, ketamine]

>  <modifier>
=

>  <microsomal CLint at 1 μM (µL/min/mg)>
90.1

$$$$
>  <compound>
N[C@]1(c2cccc(F)c2)CCCCC1=O [Compound 3S]

>  <modifier>
=

>  <microsomal CLint at 1 μM (µL/min/mg)>
11.3

$$$$
>  <compound>
CN[C@@]1(c2ccc(F)cc2)CCCCC1=O [Compound 2R]

>  <modifier>
=

>  <microsomal CLint at 1 μM (µL/min/mg)>
10.9

$$$$
>  <compound>
N[C@]1(c2ccc(F)cc2)CCCCC1=O [Compound 1S]

>  <modifier>
<

>  <microsomal CLint at 1 μM (µL/min/mg)>
9.6

$$$$

----------
- assay details: Oral bioavailability in mice, Method A (plasma and brain PK)
- Assay type: in vivo, CD-1 mice
- condition set: male, CD-1, mouse plasma, 10 mg/kg iv, read-out: t1/2 (iv)
- Procedure: Animals. Male CD-1 mice were used in these studies. Animals were randomly assigned to treatment groups and were fasted for 4 h before dosing. Drugs. Test compounds were dissolved in normal saline and administered intravenously (iv) or orally (po) at a dose of 10 mg/kg (calculated based on freebase) and at a volume of 5 mL/kg body weight. […] Data Analysis. The drug concentrations of samples below the lower limit of quantitation (LLOQ) were designated as zero. […]

>  <compound>
CNC1(c2ccccc2Cl)CCCCC1=O (racemic) [racemic ketamine, ketamine]

>  <half-life / min>
8.46

$$$$

----------
- assay details: Oral bioavailability in rats, Method B (plasma and brain PK)
- Type: in vivo, Sprague Dawley rats
- condition set: male, Sprague Dawley; rat plasma, Method B, 1 mg/kg iv; read-out: t1/2 (iv)
# Lookup of reported half-life keyed by entry
measurement kind: half-life (h)

>  <structure as smiles>
CN[C@]1(c2ccc(F)cc2)CCCCC1=O

>  <measurement kind>
half-life

>  <units text>
h

>  <endpoint value>
0.7

$$$$
>  <structure as smiles>
N[C@]1(c2ccc(F)cc2)CCCCC1=O

>  <measurement kind>
half-life

>  <units text>
h

>  <endpoint value>
2.58

$$$$
>  <structure as smiles>
CN[C@@]1(c2ccc(F)cc2)CCCCC1=O

>  <measurement kind>
half-life

>  <units text>
h

>  <endpoint value>
2.77

$$$$
